- experimental target: Spike S1 & S2 ECD (SARS-CoV-2) (UniProt P0DTC2)
- test method notes: filter
- run parameters: ThrdU at 5; other dU Tyr-dU; dC Nap-dC; SB18T0.01, 37 C
observable: pKd
Answers are plain numbers, as −log10 of the molar value.

Req: Entry under review: GGGANANNANGNGNNNGANNGNNNGGANG [26874-29_97] . Reported pKd?
Resp: 9.54

* * *

- experimental target: Spike S1 & S2 ECD (SARS-CoV-2) (UniProt P0DTC2)
- test method notes: filter
- run parameters: BTdU at 5; other dU Tyr-dU; dC Nap-dC; low plateau
observable: pKd
Give bare numbers, as −log10 of the molar value.

Req: // returns reported pKd for input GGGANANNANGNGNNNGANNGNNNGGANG [26874-29_116]
Resp: 9.28

* * *

- experimental target: Spike S1 & S2 ECD (SARS-CoV-2)
- test method notes: filter
- run parameters: PPdU at 5; other dU Tyr-dU; dC Nap-dC; SB18T0.01, 37 C
observable: Kd (nM)
Answers are plain numbers, in nM.

Req: Need Kd of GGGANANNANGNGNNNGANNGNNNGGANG [26874-29_87] , thanks.
Resp: 0.25

* * *

- experimental target: Spike S1 & S2 ECD (SARS-CoV-2) (UniProt P0DTC2)
- test method notes: filter
- run parameters: iBudU at 10; other dU Tyr-dU; dC Nap-dC; SB18T0.01, 37 C
observable: pKd
One number for each entry, as −log10 of the molar value.

Req: Lab note: need pKd for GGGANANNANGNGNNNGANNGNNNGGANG [26874-29_140] on Spike S1 & S2 ECD (SARS-CoV-2) (UniProt P0DTC2), anyone have it?
Resp: 9.33

* * *

- experimental target: Spike S1 & S2 ECD (SARS-CoV-2)
- test method notes: filter
- run parameters: ThrdU at 10; other dU Tyr-dU; dC Nap-dC; SB18T0.01, 37 C
observable: Kd
# answer = value followed by unit

Req: Quick one: Kd for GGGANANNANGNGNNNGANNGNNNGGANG [26874-29_101] ?
Resp: 0.36 nM

* * *

- experimental target: Spike S1 & S2 ECD (SARS-CoV-2) (UniProt P0DTC2)
- test method notes: filter
- run parameters: 2Nap-dC at 7; other dC Nap-dC; dU Tyr-dU
observable: pKd
One number for each entry, as −log10 of the molar value.

Req: Fill blank: measured pKd of the sequence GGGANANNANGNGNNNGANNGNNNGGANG [OH-26874-29_181] is ____.
Resp: 9.70

* * *

- experimental target: Spike S1 & S2 ECD (SARS-CoV-2)
- test method notes: filter
- run parameters: PEdU at 10; other dU Tyr-dU; dC Nap-dC; SB18T0.01, 37 C
observable: pKd
Numbers only, as −log10 of the molar value.

Req: Which pKd is reported for this sequence? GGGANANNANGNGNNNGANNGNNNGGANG [26874-29_81]
Resp: 9.80

* * *

- experimental target: Spike S1 & S2 ECD (SARS-CoV-2)
- test method notes: filter
- run parameters: 2Nap-dC at 12; other dC Nap-dC; dU Tyr-dU
observable: pKd
One number for each entry, as −log10 of the molar value.

Req: Could you tell me which pKd is on file for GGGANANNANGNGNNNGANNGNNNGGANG [OH-26874-29_182] ?
Resp: 9.39
